Values of IC50 reported for Human Factor XIIa (hFXIIa) (Homo sapiens, UniProt P00748) appear below.

MOLECULE	IC50
O=C(NCC1CC1)c1nn(-c2cccc(Cl)c2)c2c1CCN(c1cccc(CN3CCC(F)C3)c1)C2=O (stereo not drawn)	1000 to 3000 nM
CN1CCc2ccc(N3CCc4c(C(=O)NCC(=O)O)nn(-c5cccc(Cl)c5)c4C3=O)cc2C1=O	300 to 1000 nM
COc1cnccc1CNC(=O)c1nn(-c2cccc(Cl)c2)c2c1CCN(c1ccc3c(c1)CN(CCO)CC3)C2=O	10 to 100 nM
C[C@H](CO)NC(=O)c1nn(-c2cccc(Cl)c2)c2c1CCN(c1ccc3c(c1)C(=O)N(C)CC3)C2=O	300 to 1000 nM
CN1CCc2ccc(N3CCc4c(C(=O)NCC5CCOCC5)nn(-c5cccc(Cl)c5)c4C3=O)cc2C1	300 to 1000 nM
CCNC(=O)c1nn(-c2cccc(Cl)c2)c2c1CCN(c1cccc(N3CCOC3=O)c1)C2=O	3000 to 10000 nM
O=C(NCc1cnoc1)c1nn(-c2cccc(Cl)c2)c2c1CCN(c1ccc3c(c1)CN(CCO)CC3)C2=O	100 to 300 nM
Cc1cc(CNC(=O)c2nn(-c3cccc(Cl)c3)c3c2CCN(c2cc4c(cc2F)CCN(CCO)C4)C3=O)[nH]n1	10 to 100 nM
O=C(NCC1CC1)c1nn(-c2cccc(Cl)c2)c2c1CCN(c1ccc3c(c1)CN(CC1CCOC1)CC3)C2=O (stereo not drawn)	300 to 1000 nM
O=C(c1nn(-c2cccc(Cl)c2)c2c1CCN(c1cccc(CN3CCCCC3)c1)C2=O)N1CCCC1	3000 to 10000 nM
CN1CCc2ccc(N3CCc4c(C(=O)NC5(CO)CC5)nn(-c5cccc(Cl)c5)c4C3=O)cc2C1=O	300 to 1000 nM
COCc1nn(-c2cc(Cl)cc(CN)c2)c2c1CCN(c1ccc3c(c1)C(=O)N(C)CC3)C2=O	10 to 100 nM
CN1CCc2ccc(N3CCc4c(C(=O)NC5(C)CCOCC5)nn(-c5cccc(Cl)c5)c4C3=O)cc2C1	300 to 1000 nM
COc1cc(N2CCc3c(C(=O)NCC4CC4)nn(-c4cccc(Cl)c4)c3C2=O)cc2c1CCN(CCO)C2	100 to 300 nM
CC1(C)OCCC1NC(=O)c1nn(-c2cccc(Cl)c2)c2c1CCN(c1cccc(CN3CCCCC3)c1)C2=O (stereo not drawn)	300 to 1000 nM
COc1cccnc1CNC(=O)c1nn(-c2cccc(Cl)c2)c2c1CCN(c1ccc3c(c1)C(=O)N(C)CC3)C2=O	100 to 300 nM
CN1CCc2ccc(N3CCc4c(C(=O)NCC5CCOC5)nn(-c5cccc(Cl)c5)c4C3=O)cc2C1 (stereo not drawn)	300 to 1000 nM
Cn1nccc1CNC(=O)c1nn(-c2cccc(Cl)c2)c2c1CCN(c1ccc3c(c1)CN(CCO)CC3)C2=O	100 to 300 nM
